test system: HCT-15 colon; test: NCI tumour cell line growth inhibition, 48 h
Quick list: TGI per entry.
// units = µM; emit number, no label

Here is how some compounds turned out for TGI.
{"columns": ["smiles record", "TGI / µM"],
 "data": [
  ["CCCCCCCCCCCCC(NC(C)=O)(C(=O)OCC)C(=O)OCC", 23],
  ["C=CC(C)(C)n1cc(C2=C(O)C(=O)C(c3c(CC=C(C)C)[nH]c4ccccc34)=C(O)C2=O)c2ccccc21", 7.6]
]}

Turning to the following compound.
Task: What value of TGI has been recorded for this entry: COc1ccc(/C=C2\CCc3ccccc3C2=O)cc1OC
Output: 45.5

* * *

tested on: OVCAR-8 ovarian; assay: NCI tumour cell line growth inhibition, 48 h
endpoint: TGI (µM)
// units = µM; emit number, no label

Here is how some molecules turned out for TGI.
{"columns": ["molecule", "result"],
 "data": [
  ["CCN(CCCl)c1cc(CN(C)C)cc(NC(=O)c2ccc(C(=O)Nc3ccccc3)cc2)c1", 6.34],
  ["C[C@@H]1OC(=O)NN=C1c1ccc(-c2ccc(F)cc2)c(C(F)(F)F)c1", 31.1],
  ["COc1ccc(NS(=O)(=O)c2ccc(N=C3C=C(Nc4ccc(S(=O)(=O)Nc5ccc(OC)nn5)cc4)C(=O)c4ccccc43)cc2)nn1", 34.8],
  ["CCCCCCCCCCCCC(NC(C)=O)(C(=O)OCC)C(=O)OCC", 32.3],
  ["CSS(C)(=O)=O", 68.8]
]}

Turning to the following molecule.
Task: What value of TGI has been recorded for this entry: CC1(C)CC[C@]2(C(=O)O)CC[C@]3(C)C(=CC[C@@H]4[C@@]5(C)CC[C@H](OC6OC(CO)C(O)C(O)C6O)C(C)(C)[C@@H]5CC[C@]43C)[C@@H]2C1 (stereo not given in full)
Output: 3.12

* * *

system: NCI-H522 lung; assay: NCI tumour cell line growth inhibition, 48 h
endpoint: TGI (µM)
// units = µM; emit number, no label

Here is how some molecules turned out for TGI.
{"columns": ["molecule", "result unit", "result"],
 "data": [
  ["Cc1ccccc1C[P+](c1ccccc1)(c1ccccc1)c1ccccc1", "µM", 5.73],
  ["CN1CCN(Cc2ccc(NC(=O)c3cccc(C#Cc4c(N)ncc5ccc(F)cc45)c3)cc2C(F)(F)F)CC1", "µM", 1.53],
  ["COc1cc2c3cc1Oc1c(OC)c(OC)cc4c1C(Cc1ccc(O)c(c1)-c1cc(ccc1OC)CC3N(C)CC2)N(C)CC4 (centres undefined)", "µM", 31.1],
  ["O=C1c2ccccc2-c2c1c1ccc([N+](=O)[O-])cc1c(=O)n2CCCn1ccnc1", "µM", 5.68],
  ["COc1ccc(S(=O)(=O)Nc2ccc(-c3csc(N4C(=O)/C(=C/c5cccs5)N=C4c4ccccc4)n3)cc2)cc1Cl", "µM", 62.8]
]}

Turning to the following molecule.
Task: What value of TGI has been recorded for this entry: CCOC(=O)/C=C(/C(=O)OCC)n1ccc(=O)n(CC(=O)OCC)c1=O
Output: 0.624

* * *

test system: ACHN renal; assay: NCI tumour cell line growth inhibition, 48 h
Quick list: TGI per entry.

Here is how some compounds turned out for TGI.
{"columns": ["compound", "result"],
 "data": [
  ["NS(=O)(=O)c1ccc(N2C(=O)C(=O)N(c3ccccc3)C2=S)cc1", "> 100 µM"],
  ["CCCCCCC/C=C1\\CCC(CN(C)C)C1=O (stereo not given)", "31.6 µM"],
  ["CCOC1=NC(C(F)(F)F)(C(F)(F)F)N=C(N2CCCCC2)O1", "> 100 µM"],
  ["N.N.NCCCCCN.O=C([O-])CC(=O)[O-].O=C([O-])CC(=O)[O-].[Pt+4].[Pt+4]", "> 100 µM"]
]}

Task: What value of TGI has been recorded for this entry: CC(c1ccccc1)C(O)S(=O)(=O)O (stereo not given)
Output: > 100 µM

Task: What value of TGI has been recorded for this entry: CCCC(=O)Nc1c(I)cc(I)c(CC(CC)C(=O)O)c1I (stereo not given)
Output: > 100 µM

* * *

system: OVCAR-4 ovarian; test: NCI tumour cell line growth inhibition, 48 h; in the data active = GI50 below about 0.43 µM; inactive = the rest
Just give me one of these, please: active, inactive

Worked cases, answers included:
{"columns": ["compound", "label value"],
 "data": [
  ["CCCCCC(=C/c1ccccc1)/C=N/N=C(N)N", "inactive"],
  ["NC(Cc1c[nH]c2cc(F)ccc12)C(=O)O (centres undefined)", "inactive"],
  ["O=C(Nc1ccc(-n2ccc3c(NC(=O)c4ccccc4)nccc32)cc1)c1ccc(N2CCOCC2)c(C(F)(F)F)c1", "inactive"],
  ["CCN(CC)c1ccc(/C=N/NC(=O)c2ccccc2Nc2ccnc(C(F)(F)F)c2)c(O)c1", "active"],
  ["CC(=Nc1ccccc1)C1=C(O)C(Cc2ccc(F)cc2)NC1=O (centres undefined)", "inactive"]
]}

Task: Please indicate how the test categorized Cc1ccc2c(c1)-c1oc(=O)c(-c3cc4ccccc4oc3=O)cc1C(O)O2 (centres undefined) .
Output: inactive

Task: Please indicate how the test categorized CCCC(=O)Nc1c(I)cc(I)c(CC(CC)C(=O)O)c1I (centres undefined) .
Output: inactive

Task: Please indicate how the test categorized CN1CCN(Cc2ccc(NC(=O)c3cccc(C#Cc4c(N)ncc5ccc(F)cc45)c3)cc2C(F)(F)F)CC1 .
Output: inactive

Task: Please indicate how the test categorized CCCc1n(Cc2ccc3ccccc3n2)cc[n+]1Cc1ccc2ccccc2c1 .
Output: active

* * *

test system: TK-10 renal; assay: NCI tumour cell line growth inhibition, 48 h; in the data active = GI50 below about 0.43 µM; inactive = the rest
Just give me one of these, please: active, inactive

{"columns": ["compound", "label value"],
 "data": [
  ["CCN(CC)c1ccc(/C=N/NC(=O)c2ccccc2Nc2ccnc(C(F)(F)F)c2)c(O)c1", "active"],
  ["CCN(CC)CCOc1ccc(Cc2ccccc2)cc1", "inactive"]
]}

Task: Please indicate how the test categorized O=S(=O)(NCCNc1cc(-c2cn(-c3ccccc3)nc2-c2cccc(O)c2)ccn1)c1ccc(Br)cc1 .
Output: inactive

Task: Please indicate how the test categorized C[C@@H]1OC(=O)NN=C1c1ccc(-c2ccc(F)cc2)c(C(F)(F)F)c1 .
Output: inactive

Task: Please indicate how the test categorized C=C(C)[C@@H]1CC[C@]2(CN)CC[C@]3(C)[C@H](CC[C@@H]4[C@@]5(C)CCC(N)[C@@](C)(CO)[C@@H]5CC[C@]43C)[C@@H]12 (some centres undefined) .
Output: inactive

Task: Please indicate how the test categorized COc1cc2c(cc1OC)-c1ncc3cc(OC)c(OC)c(OC)c3c1C2 .
Output: inactive

Task: Please indicate how the test categorized COCC(=O)NC/C=C/c1ccc2ncnc(Nc3ccc(Oc4ccc(C)nc4)c(C)c3)c2c1 .
Output: inactive

Task: Please indicate how the test categorized O=C(Nc1ccc(N2CCNCC2)cn1)c1[nH]ncc1Nc1ncnc2sccc12 .
Output: inactive

Task: Please indicate how the test categorized COc1ccccc1N1CCN(CCCOc2ccc(C(=O)/C=C3/C(=O)Nc4ccccc43)cc2)CC1 .
Output: inactive

* * *

Quick list: log10 TGI per entry.
test system: OVCAR-8 ovarian; assay: NCI tumour cell line growth inhibition, 48 h
Values reflect log10 of reported TGI (µM).

{"columns": ["molecule", "result"],
 "data": [
  ["O=C1c2ccccc2-c2c1c1ccc([N+](=O)[O-])cc1c(=O)n2CCCn1ccnc1", 0.68]
]}

Task: What value of log10 TGI has been recorded for this entry: Clc1nc(Nc2nc3ccccc3[nH]2)nc(Cl)c1-c1ccccc1
Output: 1.84

Task: What value of log10 TGI has been recorded for this entry: C[C@H](CO)C1=CC(C#C[Si](C)(C)C)N(C(=O)Oc2ccccc2)c2ccccc21 (stereo not given in full)
Output: 1.63

Task: What value of log10 TGI has been recorded for this entry: COc1cc2c3cc1Oc1c(OC)c(OC)cc4c1C(Cc1ccc(O)c(c1)-c1cc(ccc1OC)CC3N(C)CC2)N(C)CC4 (stereo not given)
Output: 1.67

Task: What value of log10 TGI has been recorded for this entry: CCOC(=O)/C=C(/C(=O)OCC)n1ccc(=O)n(CC(=O)OCC)c1=O
Output: 0.81

Task: What value of log10 TGI has been recorded for this entry: CCCCCCC(O)C(O)CCC(O)C1CCC(CCCCC(O)CC2=CC(C)OC2=O)O1 (stereo not given)
Output: 0.82

* * *

Quick list: TGI per entry.
tested on: M14 melanoma; test: NCI tumour cell line growth inhibition, 48 h

Here is how some molecules turned out for TGI.
{"columns": ["molecule", "endpoint", "result"],
 "data": [
  ["C(/C=C/Nc1ccc(-c2ccccc2)cc1)=Nc1ccc(-c2ccccc2)cc1", "TGI", "> 100 µM"],
  ["CCOC(OCC)[C@H](N)[C@@H](O)[C@@H](O)[C@H]1COC(C)(C)O1", "TGI", "> 100 µM"],
  ["COc1cc(OC2OC(CO)C(O)C(O)C2O)c2c(c1)O[C@@H]1[C@H](O)Oc3cc(OC)c(OC)cc3[C@]1(O)C2=O (some centres undefined)", "TGI", "> 25 µM"],
  ["CCSc1nc(C)nc2c1sc1nc3ccccc3n12", "TGI", "> 100 µM"],
  ["COC(=O)C1=C(O)c2cc3c(cc2[C@H](c2cc(OC)c(OC)c(OC)c2)C1)OCO3", "TGI", "> 100 µM"]
]}

Task: What value of TGI has been recorded for this entry: S=C(S)N1CCN(c2ccccc2)CC1
Output: > 100 µM

Task: What value of TGI has been recorded for this entry: CC1(C)OC2COC(c3[nH]nc4c(=O)[nH]c(=O)[nH]c34)C2O1 (centres undefined)
Output: > 100 µM

Task: What value of TGI has been recorded for this entry: Cc1cc(C)c(O)c(CNCCCNCc2cc(C)cc(C)c2O)c1
Output: 3.55 µM

Task: What value of TGI has been recorded for this entry: CC(C)C1=CC23CCC4C(C)(C(=O)O)CCCC4(C)C2CC1C1C(=O)N(c2cccc(N4C(=O)C5C6CC7C8(C)CCCC(C)(C(=O)O)C8CCC7(C=C6C(C)C)C5C4=O)c2)C(=O)C13 (centres undefined)
Output: 25.5 µM
